The measurements presented in this section are drawn from the Kinase Knowledgebase extract (Sharma et al. 2016).

# tested.system: MAPK14 (human) (UniProt Q16539)
# Sequence (Q16539 whole entry, looked up): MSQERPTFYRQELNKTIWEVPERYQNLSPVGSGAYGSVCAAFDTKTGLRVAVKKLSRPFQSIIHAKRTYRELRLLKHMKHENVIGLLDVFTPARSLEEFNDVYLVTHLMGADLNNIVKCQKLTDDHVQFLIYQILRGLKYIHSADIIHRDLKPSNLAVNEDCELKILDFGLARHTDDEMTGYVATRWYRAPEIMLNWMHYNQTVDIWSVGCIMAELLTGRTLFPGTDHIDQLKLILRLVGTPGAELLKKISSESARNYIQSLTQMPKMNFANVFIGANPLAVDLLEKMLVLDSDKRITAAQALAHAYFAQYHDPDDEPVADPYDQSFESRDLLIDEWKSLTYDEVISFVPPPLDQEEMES
# assay.protocol: Inhibition of LPS Stimulated TNF Production by U937 Cells
reported.property: IC50 (nM)

Below are worked cases with known answers.
C[C@H](NS(=O)(=O)/C=C/c1ccccc1)c1[nH]nc(-c2ccc(F)cc2)c1-c1ccncc1 = 590
C[C@H](NC(=O)NCc1ccccc1)c1[nH]nc(-c2ccc(F)cc2)c1-c1ccncc1 = 840
COC(=O)c1ccccc1S(=O)(=O)NCc1[nH]nc(-c2ccc(F)cc2)c1-c1ccncc1 = 4850
Fc1ccc(-c2n[nH]cc2-c2ccnc(NCCN3CCOCC3)c2)cc1 = 539
OCCn1cc(-c2ccnc(F)c2)c(-c2ccc(F)cc2)n1 = 2670
O=C(NCc1[nH]nc(-c2ccc(F)cc2)c1-c1ccncc1)c1ccc(F)cc1 = 2760

(a) O=C(C1CC1)N1CCC(c2[nH]nc(-c3ccc(F)cc3)c2-c2ccncc2)CC1
(b) C[C@@H](NC(=O)c1ccccc1I)c1[nH]nc(-c2ccc(F)cc2)c1-c1ccncc1
**Q:** Endpoint returns the identifier whose IC50 is numerically larger, either a or b . Respond using the label that marks the chosen record.
**A:** b

(a) Fc1ccc(-c2[nH]nc(NCCCN3CCOCC3)c2-c2ccncc2)cc1
(b) CCN(CC)CCn1cc(-c2ccnc(NCc3ccc(F)cc3)c2)c(-c2ccc(F)cc2)n1
**Q:** // which entry reports the smaller IC50, a or b ? The response must carry the label of the picked entry.
**A:** a

(a) CC(Oc1ccccc1)C(=O)NCc1[nH]nc(-c2ccc(F)cc2)c1-c1ccncc1 (stereo unspecified)
(b) CCOC(=O)N[C@H](C)c1[nH]nc(-c2ccc(F)cc2)c1-c1ccncc1
(c) Fc1ccc(-c2n[nH]cc2-c2ccnc(NCc3cccc(F)c3)c2)cc1
**Q:** Reorder: IC50, max to min. Answer by writing out the labels in the requested order.
**A:** a, b, c
